# Tested on: PPARg:RXRa IVT, anti-PPARg (NR concentration 270 nM, RXRa partner concentration 90 nM)
# Protocol Summary: PBM binding z-score (relative to random genomic background probes); higher = stronger binding; sequences stand for … in GC…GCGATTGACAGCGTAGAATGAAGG
Reported PBM binding z-score values for the following sequences.
Answer using only a numeral; do not append any unit.

Record excerpt, results attached:
CCTAGGAGGACAACAGGAGGTCAGAGCTGCCAGA
0.949
TCTATTAGTTAATTAGGGCAACCGAAACAGCGGA
5.38
CCGACTGGGGCCGAAAGGTTACCATACCATCCGG
0.138

Form field: reported PBM binding z-score of AGAACGAGTGCACGCTGAGTTGATAGCAGAGTAG
0.0753

Further, for CATACAGGGTCAGCTAGGCCAGAGTTGGGACGGC ?
2.34

* * *

Listed here are sequences together with their documented PBM binding z-score.
# Test system: RARa homodimer (NR concentration 270 nM)
# Protocol Summary: PBM binding z-score (relative to random genomic background probes); higher = stronger binding; sequences stand for … in GC…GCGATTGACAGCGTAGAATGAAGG
In your answer, state the number alone without any accompanying words.

# annotated cases, reported PBM binding z-score shown
TCTTGTAGATCAAGCAGGTTTAGAAAGCCTGAGT
-0.252
CCTACTGGGCTATCAGGTCATTGATATCAACGTT
0.294
GCGACTGGGGCAAAGTAGGTTACCATAAGGTTGG
-0.558

Give the reported PBM binding z-score for CGTCCAAGGTTAAAGGTCAGTGAAGAGATGACGG (system: RARa homodimer (NR concentration 270 nM)).
1.36

Okay, and CTACCAAGGTGAACAAGGTCGCTGATTACTATTC ?
-0.144

Do the same for TGAATGGGGTTAAAGATCAGGGAACGTGGCGTCG please
1.66

Now the sequence TCATATAGGTAAAAGGTGAAAGTGGGTGTGGTAA
2.39

Now the same for CCGACTGGGGGATAAGGTTACCATAAGCCAGCCC
0.448

Now the same for TGAATGAGGTTAAAGAGCAGGGAACGTGGCGTCG
0.12

* * *

# System: PPARg:RXRa 90nM:30nM, anti-RXR (NR concentration 90 nM, RXRa partner concentration 30 nM)
# Protocol Summary: PBM binding z-score (relative to random genomic background probes); higher = stronger binding; sequences stand for … in GC…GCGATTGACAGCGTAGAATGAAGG
Assign condition met to entries whose PBM binding z-score meets or exceeds 3; assign condition not met to the rest.

Previously resolved entries follow.
TCTCGAAGGACACGAAAGGTCAGAGCTCGACATC
condition met
GCTCGGAGGACAAGGTCAGAGCCTTGTCCGTAGA
condition not met
GCGACTGGGGCAAATCAGGTTACCATAAGGTTGG
condition not met

Form field: PBM binding z-score at least 3? Entry: CCGACTGGGGCAGAAAGGTTAACATACCATCCGG
condition not met

Subsequent entry: ATATGTAGGTTAGCTGGGGTCAATCAGACTAGGC
condition met

* * *

# System: LXRb:RXRa (NR concentration 270 nM, RXRa partner concentration 90 nM)
# Protocol Summary: PBM binding z-score (relative to random genomic background probes); higher = stronger binding; sequences stand for … in GC…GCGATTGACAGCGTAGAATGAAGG
Measure Name: PBM binding z-score
Please reply with the number alone, leaving off any unit.

Example results:
TCTAGCAGGACAGAGGGTCACTCAAGAGGTACGG
1.18
ATATGTAGGTTACAACCGGGTCATTCAGGCTATG
2.93
CCTAGTTGGTCAGGAGATCACACACCGGATATGA
0.0659

Quick one: PBM binding z-score of CGGCCAAGGTCAAGGTCAGTGAAAGAGACTCGAA ?
4.63

Lookup CGAACTAGGTCATTCAGGACAGTGAATACATTGA
2.11

Next sequence: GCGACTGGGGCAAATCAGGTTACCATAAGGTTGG
0.749

Also GGAACGAGGGCAAGTTGATCGCAGAGTTTGATGG ?
0.128

Another: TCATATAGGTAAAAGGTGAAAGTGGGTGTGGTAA
2.45

Now consider CAAACTAGGTCATAGAGGTCAAAGTCCGTGCGTA and answer again.
6.15

Further, for TTAGCAAGGTGAAAGGTCGTTGATGCACGCCTTG ?
2.47
